Numbers sourced from ChEMBL document CHEMBL4425175.

Target: Cyclin-dependent kinase 5/CDK5 activator 1 (Homo sapiens) (UniProt Q00535+Q15078)
Sequence (Q00535 whole entry): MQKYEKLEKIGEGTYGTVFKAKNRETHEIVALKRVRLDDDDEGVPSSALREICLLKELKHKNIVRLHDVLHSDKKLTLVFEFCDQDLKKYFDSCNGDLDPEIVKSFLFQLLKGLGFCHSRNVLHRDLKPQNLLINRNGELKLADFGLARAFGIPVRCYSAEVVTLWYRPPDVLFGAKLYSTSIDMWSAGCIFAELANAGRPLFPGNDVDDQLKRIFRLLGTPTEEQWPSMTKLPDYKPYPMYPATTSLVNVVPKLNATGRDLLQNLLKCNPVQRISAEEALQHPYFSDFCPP
Sequence (Q15078 99-307 partner limits assumed): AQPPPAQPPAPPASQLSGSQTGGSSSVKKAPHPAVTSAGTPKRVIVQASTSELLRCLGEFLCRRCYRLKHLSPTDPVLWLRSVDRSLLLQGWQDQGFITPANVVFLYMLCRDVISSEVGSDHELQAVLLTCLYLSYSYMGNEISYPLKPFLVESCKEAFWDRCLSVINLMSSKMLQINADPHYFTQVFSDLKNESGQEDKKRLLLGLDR
Assay: Inhibition of human recombinant CDK5/p25 using histone1 as substrate at 10 uM after 30 mins in presence of [gamma33P] ATP by scintillation counting
Assay type: protein-complex assay
recorded endpoint: inhibition (%)

The following compounds have reported results that may help.
{"sample smiles": "CCCCc1c2cnccc2c(N)c2nc(N)ncc12", "assay result": 0}
{"sample smiles": "CCc1c2cnccc2c([N+](=O)[O-])c2nc(N)ncc12", "assay result": 96}
{"sample smiles": "Cc1c2cnccc2c(N)c2nc(N)ncc12", "assay result": 54}

[1] Nc1ncc2cc3cnccc3c(N)c2n1
[2] Nc1ncc2c(Cc3ccccc3)c3cnccc3c(N)c2n1
Select the item with the higher value of inhibition from the options 1 and 2 listed. In your reply, give the label of the chosen option.
1

[A] CCc1c2cnccc2c(N)c2nc(N)ncc12
[B] CCCCc1c2cnccc2c([N+](=O)[O-])c2nc(N)ncc12
Kindly identify the item with the lower inhibition figure among these two: A and B Refer to your chosen item by its label in the answer.
A

----------
Molecular target: UniProt Q63470
Assay: Inhibition of GST-fused rat recombinant DYRK1A expressed in Escherichia coli using myelin basic protein as substrate at 10 uM after 30 mins in presence of [gamma33P] ATP by scintillation counting
recorded endpoint: inhibition (%)

Solved cases (5 shown):
{"sample smiles": "CCc1c2cnccc2c(N)c2nc(N)ncc12", "inhibition, %": 65}
{"sample smiles": "Cc1c2cnccc2c([N+](=O)[O-])c2nc(N)ncc12", "inhibition, %": 82}
{"sample smiles": "CCc1c2cnccc2c([N+](=O)[O-])c2nc(N)ncc12", "inhibition, %": 80}
{"sample smiles": "Nc1ncc2c(-c3ccccc3)c3cnccc3c(N)c2n1", "inhibition, %": 49}
{"sample smiles": "Nc1ncc2cc3cnccc3c([N+](=O)[O-])c2n1", "inhibition, %": 95}

[I] Cc1c2cnccc2c(N)c2nc(N)ncc12
[II] Nc1ncc2c(Cc3ccccc3)c3cnccc3c([N+](=O)[O-])c2n1
// returns I or II , whichever has the lower inhibition Respond using the label that marks the chosen record.
II
(II: 40%, I: 90%)

----------
Biological target: Dual specificity protein kinase CLK1 (Homo sapiens)
Assay: Inhibition of GST-fused human recombinant CLK1 expressed in Escherichia coli using GRSRSRSRSRSR peptide as substrate at 10 uM
recorded endpoint: inhibition (%)

{"sample smiles": "Cc1c2cnccc2c([N+](=O)[O-])c2nc(N)ncc12", "result unit": "%", "inhibition": 30}
{"sample smiles": "Cc1c2cnccc2c(N)c2nc(N)ncc12", "result unit": "%", "inhibition": 30}
{"sample smiles": "Nc1ncc2c(-c3ccccc3)c3cnccc3c([N+](=O)[O-])c2n1", "result unit": "%", "inhibition": 30}

----------
Molecular target: Dual specificity tyrosine-phosphorylation-regulated kinase 1A (Rattus norvegicus) (UniProt Q63470)
Experiment: Inhibition of GST-fused rat recombinant DYRK1A expressed in Escherichia coli using myelin basic protein as substrate at 10 uM after 30 mins in presence of [gamma33P] ATP by scintillation counting
recorded endpoint: inhibition (%)

[P] CCCCc1c2cnccc2c([N+](=O)[O-])c2nc(N)ncc12
[Q] CCCCc1c2cnccc2c(N)c2nc(N)ncc12
Could you please tell me which of these two has the higher inhibition: P or Q ? Please indicate the selected item by its label.
P
(P: 86%, Q: 52%)

----------
Molecular target: Dual specificity tyrosine-phosphorylation-regulated kinase 1A (Rattus norvegicus) (UniProt Q63470)
Test: Inhibition of GST-fused rat recombinant DYRK1A expressed in Escherichia coli using myelin basic protein as substrate at 10 uM after 30 mins in presence of [gamma33P] ATP by scintillation counting
recorded endpoint: inhibition (%)

Worked cases, inhibition given:
{"sample smiles": "Nc1ncc2c(Br)c3cnccc3c([N+](=O)[O-])c2n1", "result unit": "%", "inhibition": 76}
{"sample smiles": "Nc1ncc2c(Cc3ccccc3)c3cnccc3c(N)c2n1", "result unit": "%", "inhibition": 49}

[1] Nc1ncc2c(-c3ccccc3)c3cnccc3c([N+](=O)[O-])c2n1
[2] Nc1ncc2cc3cnccc3c(N)c2n1
From the items above, decide which of 1 and 2 has the lower inhibition reading. Identify your pick by its label.
1
(1: 53%, 2: 99%)
